- Tested on: CAKI-1 renal
- method summary: NCI-60 one-dose screen, 48 h (100 = growth as untreated, 0 = no growth, -100 = all killed)
- run conditions: 10 µM unless noted
This is part of a sample that, as a whole, favours compounds with a hit. Of some 83,000 tested, about 20% had one in any assay.
We label by threshold. Values of growth strictly beneath 50% are Condition met. Values of 50% and up are Condition not met.

* CCCCCCCC12Cc3ccccc3C1=Nc1c(c3ccccc3n1C)C2=O (stereo not given) | Condition not met
* C=C1CC[C@@H]2[C@](C)(COC(C)=O)[C@H](OC(C)=O)CC[C@@]2(C)[C@@H]1C/C=C1/C(=O)OC[C@H]1OC(C)=O | Condition not met
* C#Cc1cccc(Nc2ncnc3cc(OC)c(OCCCCCCC(=O)NO)cc23)c1 | Condition met
* C=CC(=O)N1CCC[C@@H](n2nc(-c3ccc(Oc4ccccc4)cc3)c3c(N)ncnc32)C1 | Condition met
* CN1CCN(CC(=O)Nc2ccc(-c3nc4ccccc4s3)cc2)CC1 | Condition not met
* O=C(NOCCO)c1ccc2cncn2c1Nc1ccc(I)cc1F | Condition met
* O=C(CNc1nc(-c2ccc(Cl)cc2)cs1)Nc1ccc(-c2nc3ccccc3s2)cc1 | Condition not met
* CCC1(/C=N/NC(N)=S)NC(=O)NC1=O (stereo not given) | Condition not met
* Cc1ccccc1N1C(c2ccccc2)=NNC12C=CC(=O)C=C2Cl (stereo not given) | Condition not met
